Origin of the recorded values: patent US6875760B2

biological target: human glucagon receptor (Homo sapiens, UniProt P47871); construct: expressed in transfected cells; host or cells: BHK (baby hamster kidney) cells; assay: Glucagon Binding Assay (III); details: BHK cell membranes, WGA SPA beads, 125I-glucagon; read-out: Glu Bd Assay (III) IC50
Sequence (P47871 26-477): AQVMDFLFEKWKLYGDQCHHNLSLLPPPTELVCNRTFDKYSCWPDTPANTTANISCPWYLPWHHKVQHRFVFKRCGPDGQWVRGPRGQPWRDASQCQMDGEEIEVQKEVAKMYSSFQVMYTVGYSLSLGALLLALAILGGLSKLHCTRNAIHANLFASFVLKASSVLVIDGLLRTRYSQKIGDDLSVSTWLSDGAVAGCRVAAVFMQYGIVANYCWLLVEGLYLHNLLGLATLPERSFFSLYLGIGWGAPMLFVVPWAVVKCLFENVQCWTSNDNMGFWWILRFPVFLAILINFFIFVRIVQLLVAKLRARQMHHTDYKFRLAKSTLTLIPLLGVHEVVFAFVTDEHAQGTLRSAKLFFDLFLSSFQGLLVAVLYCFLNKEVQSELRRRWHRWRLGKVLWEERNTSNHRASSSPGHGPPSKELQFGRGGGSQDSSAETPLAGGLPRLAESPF
Field: pIC50. Provide a value for each of the compounds that follow.
One number for each entry, as −log10 of the molar value.

Sample records with pIC50:
{"Compound": "CC(C)c1ccc(NC(=O)N(Cc2ccc(C(=O)NCCC(=O)O)cc2)CC(C)c2ccccc2)cc1 (stereo not drawn)", "Endpoint Label": "pIC50", "Measurement": 6.25}
{"Compound": "O=C(O)CCNC(=O)c1ccc(CN(C(=O)c2ccc3c(c2)-c2ccccc2C3=O)c2ccc(C3CCCCC3)cc2)cc1", "Endpoint Label": "pIC50", "Measurement": 6.05}
{"Compound": "CC(C)(C)[C@H]1CC[C@H](N(Cc2ccc(C(=O)NCCC(=O)O)cc2)NC(=O)c2ccc(OC(F)(F)F)cc2)CC1", "Endpoint Label": "pIC50", "Measurement": 7.07}
{"Compound": "CSc1cccc(NC(=O)N(Cc2ccc(C(=O)Nc3nn[nH]n3)cc2)c2ccc(C(C)(C)C)cc2)c1", "Endpoint Label": "pIC50", "Measurement": 7.35}
{"Compound": "CC(C)N1C(=O)c2ccc(NC(=O)N(Cc3ccc(C(=O)NCCC(=O)O)cc3)c3ccc(C(C)(C)C)cc3)cc2C1=O", "Endpoint Label": "pIC50", "Measurement": 7.14}
{"Compound": "O=C(Nc1nn[nH]n1)c1ccc(CN(C(=O)Nc2cccc(OC(F)(F)F)c2)c2ccc(C3=CCCCC3)cc2)cc1", "Endpoint Label": "pIC50", "Measurement": 7.68}
{"Compound": "O=C(O)CCNC(=O)c1ccc(CN(C(=O)Nc2ccc(OC(F)(F)F)cc2)C2CCC(=C3CC3)CC2)cc1 (stereo not drawn)", "Endpoint Label": "pIC50", "Measurement": 6.24}
{"Compound": "O=C(Nc1nn[nH]n1)c1ccc(CN(C(=O)Nc2cc(C(F)(F)F)cc(C(F)(F)F)c2)c2ccc(C3=CCCCC3)cc2)cc1", "Endpoint Label": "pIC50", "Measurement": 7.68}

Please state pIC50 for every compound in the list that follows.
1. O=C(Nc1nn[nH]n1)c1ccc(CN(C(=O)Nc2ccc(OC(F)(F)F)cc2)c2ccc(C3CCCCC3)cc2)cc1
2. CS(=O)(=O)c1ccc(OC(=O)N(Cc2ccc(C(=O)NCCC(=O)O)cc2)c2ccc(C3CCCCC3)cc2)cc1
3. CCN(CCC(=O)O)C(=O)c1ccc(CN(C(=O)Nc2ccc(OC(F)(F)F)cc2)C2CCC(C(C)(C)C)CC2)cc1 (stereo not drawn)
4. CS(=O)(=O)c1cccc(NC(=O)N(Cc2ccc(C(=O)Nc3nn[nH]n3)cc2)c2ccc(OC(F)(F)F)cc2)c1

7.38
5.34
5.55
5.75

Parameters: items (list). Returns: pIC50 for each item.
1. CCOC(=O)N1CCC(NC(=O)N(Cc2ccc(C(=O)NCCC(=O)O)cc2)[C@H]2CC[C@H](C(C)(C)C)CC2)CC1
2. CC(C)(C)C1CCC(N(Cc2ccc(C(=O)Nc3nn[nH]n3)cc2)C(=O)Cc2ccc(S(C)(=O)=O)cc2)CC1 (stereo not drawn)
3. Cc1cc(NC(=O)N(Cc2ccc(C(=O)Nc3nn[nH]n3)cc2)C2CCC(C(C)(C)C)CC2)cc(C(F)(F)F)c1 (stereo not drawn)

5.39
6.21
7.64

Field: pIC50. Fill in for each record below.
1. CSc1ccc(OC(=O)N(Cc2ccc(C(=O)NCCC(=O)O)cc2)c2ccc(C3CCCCC3)cc2)cc1
2. CC(C)(C)[C@H]1CC[C@H](N(Cc2ccc(C(=O)Nc3nn[nH]n3)cc2)C(=O)Nc2cc(C(F)(F)F)cc(C(F)(F)F)c2)CC1

1: 6.33; 2: 7.54
